Some compounds, each annotated with its measured growth.
# Tested on: MOLT-4 leukemia
# Protocol Text: NCI-60 one-dose screen, 48 h (100 = growth as untreated, 0 = no growth, -100 = all killed)
# Measurement Conditions: 10 µM unless noted
About 83,000 compounds went through this panel and 20% of them were active in at least one assay; those are over-represented in the sample as a whole.
Please reply with the bare figure in % and do not write the unit itself.

# Compound, Target Or System, growth (%)
records = [
    ("CC(C)COc1nc2c(c(=O)n(C)c(=O)n2C)n1C", "MOLT-4 leukemia", 93.3),
    ("N#C/C(=C\\c1c(-c2ccccc2)[nH]c2ccccc12)C(N)=O", "MOLT-4 leukemia", 61.6),
    ("Cn1cc(C(=O)c2nc(-c3c[nH]c4ccccc34)no2)c2cc(F)ccc21", "MOLT-4 leukemia", 38.9),
    ("CC(=O)c1c(C)nc(SCC(=O)Nc2cccc(O)c2)n1-c1ccc(Cl)cc1", "MOLT-4 leukemia", 95.4),
    ("CNC(=O)c1ccccc1Oc1nc(Nc2cc(OC)c(OC)c(OC)c2)ncc1Br", "MOLT-4 leukemia", 68.6),
]

Report growth for `CCNCCNc1cc(C2CCCCC2)c(C#N)c2nc3ccccc3n12` please. -7.01

Report growth for `Cn1c(=O)c2nc(/C=C/c3ccccc3)c(=O)[nH]c2n(C)c1=S` please. 103

Report growth for `O=C1C(=O)N(Cc2ccc(-c3ccccc3)cc2)c2ccc(OC(F)(F)F)cc21` please. 30

Report growth for `CCOC(=O)n1cc(-c2nonc2-c2cn(C(=O)OCC)c3ccc(Br)cc23)c2ccccc21` please. 72.2

Report growth for `CCCCCCCCCCCCCCCCCCOc1ccccc1CC(=O)OCC[N+](C)(C)C` please. -7.37

Report growth for `COc1ccc(\C=N/N=C(N)/C(N)=N\N=C/c2ccc(OC)cc2)cc1` please. 109

Report growth for `CCNCCNc1cc(-c2ccc(C(F)(F)F)cc2)c(C#N)c2nc3ccccc3n12` please. -32.7

Report growth for `Cc1c(O)cc(-c2cnc(Nc3ccccc3)s2)c(O)c1C` please. 62.8

Report growth for `CC(=O)Oc1ccc(C)cc1C` please. 106

Report growth for `N=C(N)c1ccc(-c2ccc(-c3ccc(Cl)c(Cl)c3)s2)nc1` please. -26.3

Report growth for `Oc1c(Br)cc(Br)c2ccc(Cn3cc(-c4ccccc4C(F)(F)F)nn3)nc12` please. 6.89

Report growth for `Cc1ccc2c(n1)C(=O)C(Br)=C(C1CCCC1)C2=O` please. 34.6

Report growth for O=C(c1nn(-c2ccccc2)c2c1CC(NCc1ccc(F)cc1)CC2)N1CCCCC1 (stereo unspecified) please. 73.5

Report growth for `COc1ccc(/C=C/C(=O)c2ccc(Nc3ccnc4cc(Cl)ccc34)cc2)cc1` please. 22.9

Report growth for `N#Cc1c(-c2ccccc2)cc(-c2ccccc2)n(CCCC(=O)Nc2ccccc2N)c1=O` please. 47.4

Report growth for `CCCn1cc2c(=O)nc3sc(Cc4ccccc4)c(C)n3c2n1` please. 78

###

# Tested on: NCI-H460 lung
# Protocol Text: NCI-60 one-dose screen, 48 h (100 = growth as untreated, 0 = no growth, -100 = all killed)
# Measurement Conditions: 10 µM unless noted
This is part of a sample that, as a whole, favours compounds with a hit. Of some 83,000 tested, about 20% had one in any assay.
Some molecules, each annotated with its measured growth.
Please reply with the bare figure in % and do not write the unit itself.

# Molecule, growth [%]
records = [
    ("Nc1nc2ccccc2c2c1S(=O)(=O)c1ccc(Cl)cc1C2=O", 23.5),
]

Lab note: need growth for `O=S(=O)(NCCNc1nccc(-c2c(-c3ccc(F)c(O)c3)nc3sccn23)n1)c1ccc(O)cc1` on NCI-H460 lung, anyone have it? 40

Lab note: need growth for `C=C(C)[C@@H]1CCC[C@]2(COS(=O)(=O)c3ccc(C)cc3)CC[C@]3(C)[C@@H](CC[C@@H]4[C@@]5(C)CCCNC(C)(C)[C@@H]5CC[C@]43C)[C@@H]12` on NCI-H460 lung, anyone have it? -49.1

Lab note: need growth for `N#Cc1ccc2c(c1)C(=O)c1c-2n(CCCN)c(=O)c2cc([N+](=O)[O-])ccc12` on NCI-H460 lung, anyone have it? -100

Lab note: need growth for CCC(C)(C)C(=O)O[C@H]1C[C@@H](C)C=C2C=C[C@H](C)[C@H](CC[C@@H]3CC(SCCN)CC(=O)O3)[C@H]21 (stereo partly drawn) on NCI-H460 lung, anyone have it? 107

Lab note: need growth for `COc1ccc2c(c1)c(-c1nc(-c3c[nH]c4ccncc34)cs1)cn2C` on NCI-H460 lung, anyone have it? -78.2

Lab note: need growth for `O=c1c2cnn(-c3ccccc3)c2n2c(CN3CCOCC3)nnc2n1-c1ccccc1` on NCI-H460 lung, anyone have it? 102

Lab note: need growth for CC1OC(n2c3ccccc3c3c4c(c5c6ccccc6[nH]c5c32)C(=O)N(CCN2CCCC2)C4=O)CC(O)C1O (stereo not drawn) on NCI-H460 lung, anyone have it? -61.3

###

# System: NCI-H322M lung
# Protocol Text: NCI-60 one-dose screen, 48 h (100 = growth as untreated, 0 = no growth, -100 = all killed)
# Measurement Conditions: 10 µM unless noted
Compounds without any hit were thinned out: in the full panel of roughly 83,000, 20% have a hit.
Observable: growth (%)
Please reply with the bare figure in % and do not write the unit itself.

Previously resolved entries follow.
# Molecule, Quantitative Readout
data = [
    ("Cc1cc(C(=O)Nc2ncc(Cc3cccc(C(F)(F)F)c3)s2)c2ccccc2n1", 59.3),
    ("CCN(CC)c1ccc(\\C=N/N=C(N)/C(N)=N\\N=C/c2ccc(N(CC)CC)cc2)cc1", 105),
]

Lab note: need growth for `C=CCOC(=O)Nc1cccn([C@H](Cc2ccccc2)C(=O)NCCC(C)C)c1=O` on NCI-H322M lung, anyone have it? 103

Lab note: need growth for C[PH+](c1nc2ccccc2nc1[PH+](C)C(C)(C)C)C(C)(C)C.C[PH+](c1nc2ccccc2nc1[PH+](C)C(C)(C)C)C(C)(C)C.[Au+].[Cl-] (centres undefined) on NCI-H322M lung, anyone have it? -94

Lab note: need growth for `Cn1cc(-c2csc(-c3c[nH]c4ccccc34)n2)c2cnccc21` on NCI-H322M lung, anyone have it? 90.2

###

# Tested on: MCF7 breast
# Protocol Text: NCI-60 one-dose screen, 48 h
# Measurement Conditions: 10 µM unless noted
About 83,000 compounds went through this panel and 20% of them were active in at least one assay; those are over-represented in the sample as a whole. Active and inactive are the calls of the source. The calls were made as follows: active = growth percent below 10; inactive = the rest.
Your response should consist of one outcome taken from label 1 for active, label 0 for inactive

# Compound, Class Name
records = [
    ("COC(=O)/C=C1/SC(=Nc2ccc(C(F)(F)F)cc2)N(CCc2c[nH]c3ccc(O)cc23)C1=O", "label 0"),
    ("Cc1nc2sc(C(=O)Nc3ccc(Br)cc3)c(N)c2cc1C(O)c1ccccc1 (centres undefined)", "label 0"),
    ("N#Cc1c(-c2ccccc2)cc(-c2ccc(Nc3nc(Nc4ccc(Cl)cc4)nc(Nc4ccc(Cl)cc4)n3)cc2)nc1N", "label 0"),
    ("O=C(CSC(=S)n1cnnc1)NC(=O)c1ccccc1", "label 0"),
    ("C[PH+](c1nc2ccccc2nc1[PH+](C)C(C)(C)C)C(C)(C)C.C[PH+](c1nc2ccccc2nc1[PH+](C)C(C)(C)C)C(C)(C)C.[Au+].[Cl-] (centres undefined)", "label 1"),
    ("Cc1cc(C(=O)Nc2ncc(Cc3cccc(C(F)(F)F)c3)s2)c2ccccc2n1", "label 0"),
    ("COC(=O)c1c(C)c2n(c1C)C(=O)C(c1ccccc1)=C2", "label 0"),
    ("COc1ccc(OC)c(Nc2nnc(-c3ccc(O)c(OC)c3)o2)c1", "label 0"),
]

Then there is this compound:
// return assay outcome for `C#CCOc1ccc2ncnc(Nc3ccc(NC(=O)C=C)cc3)c2c1` label 1

###

# Test system: UACC-62 melanoma
# Protocol Text: NCI-60 one-dose screen, 48 h
# Measurement Conditions: 10 µM unless noted
This is part of a sample that, as a whole, favours compounds with a hit. Of some 83,000 tested, about 20% had one in any assay. Activity calls are given as the source filed them. The calls were made as follows: active = growth percent below 10; inactive = the rest.
Your response should consist of one outcome taken from 1 (active), 0 (inactive)

Consider the following illustrative entries.
# Compound, Class Name
records = [
    ("O=C1NC(=C(Cl)Cl)/C(=N\\S(=O)(=O)NCc2ccccc2)N1", 0),
    ("COc1ccc(C(C)=O)cc1S(=O)(=O)Nc1c(N)nc(SC)[nH]c1=O", 0),
    ("CC(C)=CCCC(C)c1ccc(C)c2c1OCN(CCCCCO)C2 (centres undefined)", 0),
    ("CC1CN(S(=O)(=O)c2oc(-c3ccc(Cl)cc3)nc2C#N)CC(C)O1 (centres undefined)", 0),
]

Then there is this compound:
// return assay outcome for `C=CC[Se]C(=O)Cc1c(C)n(C(=O)c2ccc(Cl)cc2)c2ccc(OC)cc12` 1
